EC50 listing for selected compounds.
# target: Dihydroorotate dehydrogenase (quinone), mitochondrial (Homo sapiens, UniProt Q02127)
# Sequence (Q02127 whole entry): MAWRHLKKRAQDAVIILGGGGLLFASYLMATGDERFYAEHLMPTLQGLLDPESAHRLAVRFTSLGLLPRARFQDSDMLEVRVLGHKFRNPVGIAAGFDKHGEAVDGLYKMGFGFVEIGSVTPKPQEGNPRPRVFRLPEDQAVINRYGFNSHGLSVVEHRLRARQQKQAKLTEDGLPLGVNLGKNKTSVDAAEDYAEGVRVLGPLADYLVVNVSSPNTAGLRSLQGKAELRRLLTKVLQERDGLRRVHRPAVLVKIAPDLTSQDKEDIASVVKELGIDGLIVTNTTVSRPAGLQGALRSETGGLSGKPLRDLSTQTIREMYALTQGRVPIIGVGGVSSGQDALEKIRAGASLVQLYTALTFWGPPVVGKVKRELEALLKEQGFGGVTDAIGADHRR
# protocol-text: Inhibition of DHODH in human HEK-293 cells transfected with ISRE-luciferase reporter gene assessed as increase in IFN-alpha mediated cellular response after 24 hrs by luciferase reporter gene assay
# test-conditions: read-out: pEC50 (converted)

[
  {
    "structure-smiles": "CC(C)n1ccc2c(c1=O)C(=O)OC21CCCCC1",
    "EC50": "> 158 µM"
  }
]

I am curious: what EC50 value has been reported for Cn1ccc2c(c1=O)C(=O)OC21CCCCC1 ? > 158 µM

---

pEC50 listing for selected compounds.
# target: Dihydroorotate dehydrogenase (quinone), mitochondrial (Homo sapiens, UniProt Q02127)
# protocol-text: Inhibition of DHODH in human HEK-293 cells transfected with ISRE-luciferase reporter gene assessed as increase in IFN-alpha mediated cellular response after 24 hrs by luciferase reporter gene assay
# test-conditions: read-out: EC50
pEC50 is defined as minus the log10 of a concentration measured in mol/L.

[
  {
    "compound": "O=C1OC2(CCCCC2)c2ccn(C3CC3)c(=O)c21",
    "pEC50": 4.36
  }
]

Now for another entry.
I am curious: what pEC50 value has been reported for CC1(c2ccccc2)OC(=O)c2c1ccn(C1CC1)c2=O (configuration not stated) ? 4.57

---

# target: Dihydroorotate dehydrogenase (quinone), mitochondrial (Homo sapiens, UniProt Q02127)
# protocol-text: Inhibition of DHODH in human HEK-293 cells transfected with ISRE-luciferase reporter gene assessed as increase in IFN-alpha mediated cellular response after 24 hrs by luciferase reporter gene assay
# test-conditions: read-out: pEC50 (converted)
EC50 listing for selected molecules.

Solved entries:
[
  {
    "structure-smiles": "CC1(C)OC(=O)c2c1ccnc2O",
    "EC50": "> 158 µM"
  },
  {
    "structure-smiles": "O=C1OC2(CCCCC2)c2ccn(C3CCCCC3)c(=O)c21",
    "EC50": "> 158 µM"
  },
  {
    "structure-smiles": "O=C1OC2(CCCC2)c2ccn(C3CC3)c(=O)c21",
    "EC50": "52.5 µM"
  }
]

Now for another entry.
I am curious: what EC50 value has been reported for O=C1OC2(CCCCC2)c2ccn(CC3CC3)c(=O)c21 ? > 158 µM
